For reference, GI50 measured on UACC-257:
Quantity: GI50 (nM)

compound="C=C1CCC2C3(C)COC(c4cn(-c5ccccc5)nc4-c4ccccc4)OC3CCC2(C)C1CC=C1C(=O)OCC1O (stereo not drawn) [1a]" experimental_target=UACC-257 result=1900
compound="C=C1CCC2C3(C)COC(c4cn(-c5ccccc5)nc4-c4ccc(Cl)cc4)OC3CCC2(C)C1CC=C1C(=O)OCC1O (stereo not drawn) [1g]" experimental_target=UACC-257 result=1800
compound="C=C1CCC2C3(C)COC(c4cn(-c5ccccc5)nc4-c4cccc([N+](=O)[O-])c4)OC3CCC2(C)C1CC=C1C(=O)OCC1O (stereo not drawn) [1b]" experimental_target=UACC-257 result=1800
compound="C=C1CCC2C3(C)COC(c4cn(-c5ccccc5)nc4-c4ccc(OC)cc4)OC3CCC2(C)C1CC=C1C(=O)OCC1O (stereo not drawn) [1j]" experimental_target=UACC-257 result=1640
compound="C=C1CCC2C3(C)COC(c4cn(-c5ccccc5)nc4-c4ccc(F)cc4)OC3CCC2(C)C1CC=C1C(=O)OCC1O (stereo not drawn) [1f]" experimental_target=UACC-257 result=1650
compound="C=C1CCC2C3(C)COC(c4cn(-c5ccccc5)nc4-c4cccc(F)c4)OC3CCC2(C)C1CC=C1C(=O)OCC1O (stereo not drawn) [1c]" experimental_target=UACC-257 result=1930

Data origin, for the record: paper PMC12298351
